Test system: SK-OV-3 ovarian
Experiment: NCI-60 one-dose screen, 48 h (100 = growth as untreated, 0 = no growth, -100 = all killed)
Details: 10 µM unless noted
Compounds without any hit were thinned out: in the full panel of roughly 83,000, 20% have a hit.
Listed here are molecules together with their documented growth.
Could you give me the number in %? Just the number is fine.

CN(CC(=O)N(Cc1ccc(C2CCCCC2)cc1)c1ccc(C(=O)NO)cc1)S(=O)(=O)c1c(F)c(F)c(F)c(F)c1F	111
CCOC(=O)c1nc(Nc2cc(C)[nH]n2)c2ccccc2n1	75.8

In: Consider the molecule shown here: Cc1cc(Nc2nc(-c3cccnc3)nc3ccccc23)n[nH]1 What is its recorded growth?
Out: 21.9

In: // lookup growth for O=C1C[C@H](Sc2nc(-c3ccc(F)cc3)cc(C(F)(F)F)n2)[C@H]2CO[C@@H]1O2
Out: 108

In: Query (molecule): COc1cc(C2CC(=O)Nc3c2cnn3Cc2ccco2)cc2c1OCCO2 (centres undefined) ; field requested: growth
Out: 97.7

In: Reported growth, molecule COc1cccc(NC(=O)c2sc3nc4c(cc3c2N)CN(Cc2ccccc2)CC4)c1 : ____
Out: 36.9

In: Need growth of O=C(Nc1cccc2c1C(=O)c1cccc(Nc3cccc4c3C(=O)c3cccc(NC(=O)c5ccccc5)c3C4=O)c1C2=O)c1ccccc1 , thanks.
Out: 101

In: What does the record list as growth for Cc1ccc(S(=O)(=O)N(CCc2ccc(Cl)cc2)S(=O)(=O)c2ccc(C)cc2)cc1 ?
Out: 85.2

In: Name the recorded growth for COc1ccc(/C=N\NC(=O)CN2CCN(c3cc4c(cc3F)c(=O)c(C(=O)N/N=C/c3ccc(OC)cc3)cn4C3CC3)CC2)cc1 .
Out: 112

* * *

Tested on: SF-268 CNS
Test: NCI-60 one-dose screen, 48 h
Settings: 10 µM unless noted
Description: Cells are grown in 96 well plates and exposed to the test compound for 48 hours. Compounds are tested at a single concentration, which is 10^-5 M for most compounds. The reported endpoint is percent growth (GI% or GIPRCNT), where numbers from 0 - 100% represent growth inhibition, and numbers from -100% - 0 represent cell death. For example, a value of 40 represents 60% growth inhibition. A value of 0 means no net growth occurred over the course of the experiment. […]
Compounds without any hit were thinned out: in the full panel of roughly 83,000, 20% have a hit. Calls of active or inactive are those of the source. Rule for the calls: active = growth percent below 10; inactive = the rest.
// one of 1 (active), -1 (inactive), no free text

O=c1c2cccc3c(NC4CCCCC4)ccc(c32)c2nc3ccccc3n12	-1

In: Recorded test call requested for O=C1O[C@H]([C@H](O)CO)C(O)=C1O
Out: -1

In: Kindly provide the recorded test outcome for the following compound: c1c2c(cc3c1OCO3)Cc1cc3c(cc1Cc1cc4c(cc1C2)OCO4)OCO3
Out: -1

In: How was O=C(O)c1ccccc1Nc1cccc(S(F)(F)(F)(F)F)c1 classified in this test?
Out: -1

In: Assay result, entry CCCCCCCCCCCCCCCC[N+]1(CC)CCCC1 — outcome?
Out: 1

In: Hey, what did the test say about O=C1C(Cl)=C(Cl)C(=O)c2c1nc1n2CCCC1 ?
Out: -1

* * *

Tested on: ACHN renal
Test: NCI-60 one-dose screen, 48 h (100 = growth as untreated, 0 = no growth, -100 = all killed)
Conditions: 10 µM unless noted
About 83,000 compounds went through this panel and 20% of them were active in at least one assay; those are over-represented in the sample as a whole.
PROPERTY LABEL: growth (%)
Report only the number, with the unit % understood.

CCCCCCCCCC(=O)Oc1ccc(/C(=C(/C)c2ccccc2)c2ccc(OCCN3CCCC3)cc2)cc1	35.2
CN[C@@]12CC3(C=CC(=O)C=C3)O[C@]1(Cc1ccc(OC)cc1)N(C)C(=O)N2	44.4

In: Find growth (ACHN renal) for the entry Nc1nc(SCc2ccccc2)c2ncn(C3CCCC3)c2n1
Out: -81.5

In: Could you share what growth was measured for O=C(/C=C\c1cccc([N+](=O)[O-])c1)c1ccccc1 , tested on ACHN renal?
Out: -50.1

In: Recorded growth for CCCCNC(=O)NS(=O)(=O)c1ccc(N2N=C(c3cc(C)ccc3C)CC2c2cc(OC)c(OC)c(OC)c2)cc1 (stereo not drawn) with ACHN renal, please?
Out: 63.6

In: # value lookup — system ACHN renal, readout growth, item Cc1sc2nc3[nH]/c(=C\c4ccc(Cl)cc4)c(=O)n3c(=O)c2c1C
Out: 101

In: Test system ACHN renal; read-out growth; what value for Cc1noc(C)c1-c1cc(O)cc(C(O)c2ccccc2)c1 (stereo not drawn) ?
Out: 60.6

In: Notebook entry, ACHN renal assay: growth of CS(=O)(=O)c1c(Nc2ccccc2)n[nH]c1N = ?
Out: 102

In: Find growth (ACHN renal) for the entry Cc1nn(-c2ccccc2)c2nc(C)n(-c3ccc(Br)cc3)c(=O)c12
Out: 44.8

In: Notebook entry, ACHN renal assay: growth of O=C(Nc1ccc(F)cc1)Nc1ccc(CCO)cc1 = ?
Out: 110

* * *

Test system: OVCAR-3 ovarian
Assay: NCI-60 one-dose screen, 48 h (100 = growth as untreated, 0 = no growth, -100 = all killed)
Settings: 10 µM unless noted
Compounds without any hit were thinned out: in the full panel of roughly 83,000, 20% have a hit.
Checkbox rule: growth lower than 70% = Criterion met; growth not lower than 70% = Criterion not met.

Oc1c(Cl)cc(Cl)cc1CNc1nccnn1	Criterion not met
COc1ccc2nc3cc(Cl)ccc3c(N3CCN(c4nccc(Nc5ccc(Cl)cc5)n4)CC3)c2c1	Criterion met
CCOC(=O)c1c2c(n3ccc(NC(=O)CCN4CCOCC4)cc13)C(=O)c1ncccc1C2=O	Criterion met
NC(=S)N/N=C/c1cc(-c2cccc(N)c2)ccn1	Criterion met
O=C(/C=C\c1ccc2ccccc2n1)c1cc(Cl)ccc1O	Criterion met

In: Dear reviewer, please state whether S=c1[nH]nc(CSc2ncnc3c2c(-c2ccccc2)cn3-c2ccc(Cl)cc2)o1 has growth strictly beneath 70%.
Out: Criterion not met

* * *

System: COLO 205 colon
Assay: NCI-60 one-dose screen, 48 h
Conditions: 10 µM unless noted
The panel holds about 83,000 compounds, 20% with a hit somewhere; the sample as a whole holds those more often. Active and inactive are the calls of the source. How the source made its calls: active means growth percent below 10; inactive means the rest.
Return exactly one item of active, inactive

Please review the following examples before continuing.
NCc1cn2cc(Cl)sc2n1	inactive
CCCCOc1ccc(NC(=O)n2nc(NC(C)=O)c3cc(NC(C)=O)ccc32)cc1	inactive
CCCCN(CCCC)Cc1c(C)[nH]c2cc(OC)ccc2c1=O	inactive
O=C(CCN1CCOCC1)Nc1ccc(Cn2nnc3c2C(=O)c2nnn(Cc4ccc(NC(=O)CCN5CCOCC5)cc4)c2C3=O)cc1	active
NS(=O)(=O)N(c1cc(C(F)(F)F)cc(C(F)(F)F)c1)C1CCN(Cc2ccc(F)cc2)CC1	active

In: State the result this test recorded for COc1cc(/C=N/N(C)C)ccc1O .
Out: inactive

In: Which outcome was assigned to O=C(Nc1nc(-c2ccccc2)cc(-c2ccc(Cl)cc2)n1)c1ccncc1 in this test?
Out: inactive

* * *

Tested on: COLO 205 colon
Test: NCI-60 one-dose screen, 48 h
Conditions: 10 µM unless noted
About 83,000 compounds went through this panel and 20% of them were active in at least one assay; those are over-represented in the sample as a whole. Calls of active or inactive are those of the source. The calls were made as follows: active = growth percent below 10; inactive = the rest.
Form entry, call: pick from active, inactive

Known results for compounds:
NC(CC(=O)O)C(=O)OCc1ccccc1 (stereo not given)	inactive
CN(C)c1ccc(/C=C\C2=[N+](C)c3ccccc3C2(C)C)cc1	active
C#Cc1nc2ccccc2c(=O)[nH]1	active

In: Could you kindly confirm the outcome this assay logged for Cc1cc2cc3cc(C)c(N(C)C)cc3nc2cc1N(C)C ?
Out: active

In: How was CCCCNP1(NCCCC)=NP(NCCCC)(NCCCC)=NP(NCCCC)(NCCCC)=NP(NCCCC)(NCCCC)=N1 classified in this test?
Out: active

* * *

Test system: LOX IMVI melanoma
Test: NCI-60 one-dose screen, 48 h
Details: 10 µM unless noted
Compounds without any hit were thinned out: in the full panel of roughly 83,000, 20% have a hit. The source made the active and inactive calls. How the source made its calls: active means growth percent below 10; inactive means the rest.
Mark one answer only. Choices: active, inactive

As a guide, the following entries are already answered.
Cn1c2ccccc2c2c3c(c4c5ccccc5[nH]c4c21)C(=O)N(N)C3=O	inactive
COc1cc(OC)c(/C=C/c2cc[n+](C)c3ccccc23)c(OC)c1	active
NC(N)=Nc1ccc(S(=O)(=O)O)cc1	inactive
COc1ccccc1N1CCN(CCn2c(=O)c3c(c4ccccc4n3C)n(C)c2=O)CC1	inactive
Cc1ccc(N)cc1F	inactive

In: Assay result, entry CCN(CC)CC(O)CNc1c2ccc([N+](=O)[O-])cc2nc2cc(OC)c(OC)cc12 (stereo not given) — outcome?
Out: active

In: How did this test come out for CN(CC(=O)N(Cc1ccc(C2CCCCC2)cc1)c1ccc(C(=O)NO)cc1)S(=O)(=O)c1c(F)c(F)c(F)c(F)c1F ?
Out: active

In: I would be grateful if you could indicate the recorded call for CCOC(=O)c1cnc2ccc(OC)cc2c1Nc1cccc(S(=O)(=O)NC)c1 .
Out: inactive

In: Entry CNC(=S)N/N=C/CSC/C=N/NC(=S)NC : call = ?
Out: inactive

In: Recorded test call requested for CCCCCCCCCCCCCCCCNCCC[C@@H](C)[C@H]1CC[C@H]2[C@@H]3[C@H](OCCCN)C[C@@H]4C[C@H](OCCCN)CC[C@]4(C)[C@H]3C[C@H](OCCCN)[C@]12C
Out: active

Source: PubChem BioAssay (NCI)
